- ASSAY_REMARKS: Solubility in aqueous media
- Format: physicochemical
- EXPERIMENTAL_CONTEXT: aqueous buffer; phosphate buffer (pH 7.0); read-out: solubility
MEASURE: solubility (µg/mL)
Numeric answer only, unit µg/mL assumed.

Asked: Which solubility is listed for COc1ccc(CNc2nc(C3CCC(C(=O)O)CC3)nc3sc4ccccc4c23)cc1Cl (stereo not shown) ?
Given back: 0.019

----------
- ASSAY_REMARKS: Solubility in aqueous media
- Format: physicochemical
- EXPERIMENTAL_CONTEXT: aqueous buffer; phosphate buffer (pH 6); read-out: solubility
MEASURE: solubility (ng/mL)
Answer format: numeric, ng/mL implied, no suffix.

Asked: Could you share which solubility value was measured for COc1ccc(CNc2nc(C3CCC(C(=O)O)CC3)nc3sc4ccccc4c23)cc1Cl (stereo not shown) ?
Given back: 1.6
